Target Entity: UniProt Q8TDV5
Test Details: In vitro cyclic AMP assay (Cisbio dynamic 2 HTRF kit) in CHO-hGPR119 cells
Recorded Conditions: cAMP
Experimental Readout: EC50

Molecule	EC50
CC(C)c1noc(N2CCC([C@H](C)Oc3nc4ccc(-c5ccnc(F)c5)nc4s3)CC2)n1	< 25 nM

For this molecule ( CC(C)c1noc(N2CCC(C(C)Oc3nc4ccc(-c5ccc(S(C)(=O)=O)cc5)nc4s3)CC2)n1 (stereo not shown) ), measured EC50 is 100 to 500 nM

For this molecule ( `CC(C)c1noc(N2CCC([C@H](C)Oc3nc4ccc(-c5ccc(C(F)(F)F)nc5)nc4s3)CC2)n1` ), measured EC50 is 50 to 100 nM

For this molecule ( `CC(C)c1noc(N2CCC([C@H](C)Oc3nc4ccc(-c5ccc(S(C)(=O)=O)nc5)nc4s3)CC2)n1` ), measured EC50 is < 25 nM

For this molecule ( `C[C@H](Oc1nc2ccc(-c3ccc(S(C)(=O)=O)nc3)nc2s1)C1CCN(c2ncc(Cl)cn2)CC1` ), measured EC50 is 100 to 500 nM

For this molecule ( `CC(C)c1noc(N2CCC([C@@H](C)Oc3nc4ccc(-c5ccncc5)nc4s3)CC2)n1` ), measured EC50 is 50 to 100 nM

For this molecule ( `CCCc1cnc(N2CCC([C@H](C)Oc3nc4ccc(-c5ccc(S(C)(=O)=O)nc5)nc4s3)CC2)nc1` ), measured EC50 is < 25 nM

---

Quick reference: activation at 1 µM of the listed items.
Target Entity: hGPR119 (Homo sapiens, UniProt Q8TDV5)
Construct: expressed in transfected cells; host or cells: CHO
Sequence (Q8TDV5 whole entry): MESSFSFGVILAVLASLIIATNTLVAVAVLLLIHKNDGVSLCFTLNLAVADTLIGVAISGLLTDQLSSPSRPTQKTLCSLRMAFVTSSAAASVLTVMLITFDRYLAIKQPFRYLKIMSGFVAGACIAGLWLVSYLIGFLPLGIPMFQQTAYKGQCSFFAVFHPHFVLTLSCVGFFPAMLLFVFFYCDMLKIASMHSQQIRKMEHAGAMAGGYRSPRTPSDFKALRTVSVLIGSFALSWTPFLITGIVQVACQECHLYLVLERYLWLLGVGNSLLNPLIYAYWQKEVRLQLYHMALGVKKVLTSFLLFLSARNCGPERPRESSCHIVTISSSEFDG
Test Details: In vitro cyclic AMP assay (Cisbio dynamic 2 HTRF kit) in CHO-hGPR119 cells
Type: cell-based
Recorded Conditions: 1 h, cAMP, compound at 1 μM, 60 min, read-out: Induction (% induction at 1 μM)
Give a bare numeral; the unit % is implied.

Examples with answers:
Molecule	Target Entity	activation at 1 µM, %
Cc1nscc1-c1ccc2nc(OC(C)C3CCN(c4nc(C(C)C)no4)CC3)sc2n1 (stereo not shown)	hGPR119 (Homo sapiens, UniProt Q8TDV5)	38
CC(C)c1noc(N2CCC(C(C)Oc3nc4ccc(-c5ccc(C#N)cc5)nc4s3)CC2)n1 (stereo not shown)	hGPR119 (Homo sapiens, UniProt Q8TDV5)	60
CC(C)c1noc(N2CCC(C(C)Oc3nc4ccc(-c5ccc(S(=O)(=O)C6CC6)cc5)nc4s3)CC2)n1 (stereo not shown)	hGPR119 (Homo sapiens, UniProt Q8TDV5)	58
COCCS(=O)(=O)c1ccc(-c2ccc3nc(OC(C)C4CCN(c5nc(C(C)C)no5)CC4)sc3n2)cc1 (stereo not shown)	hGPR119 (Homo sapiens, UniProt Q8TDV5)	36
CC(C)c1noc(N2CCC(C(C)Oc3nc4ccc(-c5ccc(S(=O)(=O)C6CC6)nc5)nc4s3)CC2)n1 (stereo in doubt)	hGPR119 (Homo sapiens, UniProt Q8TDV5)	72
CCCS(=O)(=O)N1CCC(C(C)Oc2nc3ccc(-c4ccc(S(C)(=O)=O)cc4)nc3s2)CC1 (stereo not shown)	hGPR119 (Homo sapiens, UniProt Q8TDV5)	12

Now for the molecule whose activation at 1 µM we want.
For this molecule ( `Cc1ccc(S(=O)(=O)N2CC=C(c3nc4ccc(-c5ccc(S(C)(=O)=O)cc5)nc4s3)CC2)cc1` ), measured activation at 1 µM is 5

Source: patent US10526345B2
